Measured Target: Sphingosine 1-phosphate receptor 1 (Homo sapiens, UniProt P21453)
Sequence (P21453 whole entry): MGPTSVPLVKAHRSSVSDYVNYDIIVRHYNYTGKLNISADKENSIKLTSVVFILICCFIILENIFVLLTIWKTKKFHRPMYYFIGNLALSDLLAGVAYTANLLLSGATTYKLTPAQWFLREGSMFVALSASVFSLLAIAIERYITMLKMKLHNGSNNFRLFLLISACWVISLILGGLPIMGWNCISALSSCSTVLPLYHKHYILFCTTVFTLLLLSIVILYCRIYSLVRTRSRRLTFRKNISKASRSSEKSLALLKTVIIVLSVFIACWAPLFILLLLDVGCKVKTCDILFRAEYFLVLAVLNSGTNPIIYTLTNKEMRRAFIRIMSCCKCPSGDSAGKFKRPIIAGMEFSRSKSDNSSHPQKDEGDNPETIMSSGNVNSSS
Experimental Protocol: direct activation of human S1P1 – cell-based, agonist mode, 60K MLSMR set, dose response (AID 468)
Hi! Just check whether EC50 is below 6 µM. Below gives 1 (yes), equal or above gives 0 (no).

>  <Molecule>
N#Cc1nc(-c2ccc(OCc3ccccc3)cc2)oc1NCc1cccnc1

>  <Discrete Label>
0 (no)

$$$$
>  <Molecule>
Cn1c(C(=O)N2CCc3ccccc3C2)cc2oc3ccccc3c21

>  <Discrete Label>
0 (no)

$$$$
>  <Molecule>
CCOC(=O)c1ccc2c(c1)C(=O)N(C1CCCCC1)C2=O

>  <Discrete Label>
0 (no)

$$$$
>  <Molecule>
CC(C)c1ccc(OCc2nc(-c3ccccn3)no2)c(Br)c1

>  <Discrete Label>
1 (yes)

$$$$
>  <Molecule>
CCCCOc1ncnc2c1[nH]c1ccc(F)cc12

>  <Discrete Label>
1 (yes)

$$$$

input: In plain terms, does O=C(CSc1nnc(-c2c[nH]c3ccccc23)o1)N(Cc1ccccc1)c1ccc(F)cc1 come in under 6 µM for EC50?
output: 1 (yes)

input: In plain terms, does COc1ccc(NC(=O)c2cc(-c3cccs3)on2)cc1OC [MLS000087261] come in under 6 µM for EC50?
output: 1 (yes)

input: In plain terms, does Cc1ccc(-n2c(C)cc(C(=O)COC(=O)c3c(C)noc3C)c2C)cc1 come in under 6 µM for EC50?
output: 0 (no)

input: In plain terms, does Nc1ccc(N2CCOCC2)c(Cl)c1 [(3-chloro-4-morpholino-phenyl)amine] come in under 6 µM for EC50?
output: 1 (yes)

----------
Measured Target: Sphingosine 1-phosphate receptor 1 (Homo sapiens, UniProt P21453)
Experimental Protocol: direct activation of human S1P1 – cell-based, agonist mode, 60K MLSMR set, dose response (AID 468)
// reported pEC50 per item
The read-out pEC50 is expressed as -log10 of concentration in moles per litre.

// below: answered compounds
>  <Compound>
CCCCOC(=O)c1[nH]c2c(c1C)C(=O)CC(c1cc(OC)c(OC)c(OC)c1)C2 (stereo not given)

>  <pEC50>
5.38

$$$$
>  <Compound>
Cc1cc(C=Nn2cnnc2)c(C)n1-c1ccc(OCc2ccc(F)cc2)cc1

>  <pEC50>
6.26

$$$$
>  <Compound>
COc1cc(C#CC#CCN2CCCCC2)ccc1O

>  <pEC50>
5.08

$$$$
>  <Compound>
CCN(C1CCCCC1)S(=O)(=O)c1ccc(S(=O)(=O)NCc2ccncc2)cc1

>  <pEC50>
5.26

$$$$
>  <Compound>
Fc1ccccc1COc1ccc(C=Nn2cnnc2)cc1

>  <pEC50>
5.34

$$$$

input: What value of measured pEC50 is listed for Cc1ccccc1-n1c(SCC(=O)c2cc(C)n(C)c2C)nnc1-c1ccncc1 ?
output: 5.00

input: What value of measured pEC50 is listed for CC(=O)Nc1ccccc1OCC(=O)c1cc(C)n(Cc2cccs2)c1C ?
output: 6.69

input: What value of measured pEC50 is listed for Cc1ccsc1C(=O)OCC(=O)c1cc(C)n(CC2CCCO2)c1C (stereo not given) ?
output: 5.12

input: What value of measured pEC50 is listed for O=C(Nc1cccc(C(F)(F)F)c1)C1CCCN1S(=O)(=O)c1cccc2cccnc12 (stereo not given) ?
output: 5.32

----------
Measured Target: Sphingosine 1-phosphate receptor 1 (Homo sapiens, UniProt P21453)
Experimental Protocol: direct activation of human S1P1 – cell-based, agonist mode, 60K MLSMR set, dose response (AID 468)
// reported pEC50 per item
The read-out pEC50 is expressed as -log10 of concentration in moles per litre.

>  <Molecule>
Cc1csc(NC(=O)C(Cc2ccccc2)n2cccc2)n1 (stereo unspecified)

>  <pEC50>
5.56

$$$$
>  <Molecule>
Cc1ccccc1-c1nnc(SCc2ccccc2F)o1

>  <pEC50>
5.79

$$$$
>  <Molecule>
CCOC(=O)CN1C(=O)C(C)(C)Oc2ccc(C(=O)Nc3ccccc3OC)cc21

>  <pEC50>
5.37

$$$$
>  <Molecule>
Cc1cc(C(=O)CSc2nnc(-c3cccs3)o2)c(C)n1-c1ccccc1

>  <pEC50>
5.33

$$$$
>  <Molecule>
CCCc1cc(C(=O)Nc2sc(C)c(CC)c2C#N)no1

>  <pEC50>
5.43

$$$$

input: What value of measured pEC50 is listed for c1ccc(CNc2ncnc3ccccc23)cc1 ?
output: 5.32

input: What value of measured pEC50 is listed for COCCn1c(C)cc(C(=O)CSc2nc3ccccc3c(=O)[nH]2)c1C ?
output: 4.21

input: What value of measured pEC50 is listed for CCc1cc2c(N3CCN(c4ccccc4)CC3)ncnc2s1 ?
output: 5.18

input: What value of measured pEC50 is listed for O=C(Nc1ccc(O)cc1)c1cc2n(n1)C(C(F)(F)F)CC(c1ccco1)N2 (stereo unspecified) ?
output: 5.44

input: What value of measured pEC50 is listed for Cc1nc2ccc3nc(NC(=O)C4COc5ccccc5O4)sc3c2s1 (stereo unspecified) ?
output: 5.31

----------
// reported pEC50 per item
Measured Target: Sphingosine 1-phosphate receptor 1 (Homo sapiens)
Experimental Protocol: direct activation of human S1P1 – cell-based, agonist mode, 60K MLSMR set, dose response (AID 468)
The read-out pEC50 is expressed as -log10 of concentration in moles per litre.

// below: answered compounds
>  <Compound>
CCOc1ccc(C(=O)Nc2ccc(Cl)cn2)cc1Cl

>  <Quantity>
pEC50

>  <Value Measured>
5.26

$$$$
>  <Compound>
COc1ccc(-n2c(C)cc(C(=O)CSc3nnc(-c4cccs4)o3)c2C)cc1

>  <Quantity>
pEC50

>  <Value Measured>
5.69

$$$$
>  <Compound>
CCCCOc1ccc(S(=O)(=O)Nc2cccnc2)cc1

>  <Quantity>
pEC50

>  <Value Measured>
5.02

$$$$
>  <Compound>
CCc1ccc(-c2nc(-c3ccncc3)no2)cc1

>  <Quantity>
pEC50

>  <Value Measured>
5.24

$$$$
>  <Compound>
Cc1nnc(SCC(=O)N2CCC(c3noc4ccc(F)cc34)CC2)s1

>  <Quantity>
pEC50

>  <Value Measured>
5.37

$$$$
>  <Compound>
Cc1ccc(-c2csc(N3CCC(NS(=O)(=O)c4ccc5c(c4)OCCO5)CC3)n2)cc1

>  <Quantity>
pEC50

>  <Value Measured>
5.78

$$$$
>  <Compound>
Cc1cc(C)cc(-c2nc(-c3ccncc3)no2)c1

>  <Quantity>
pEC50

>  <Value Measured>
5.69

$$$$
>  <Compound>
Fc1ccc2[nH]c3c(N4CCN(Cc5ccc6c(c5)OCO6)CC4)ncnc3c2c1

>  <Quantity>
pEC50

>  <Value Measured>
5.71

$$$$

input: What value of measured pEC50 is listed for CC(C)c1ccc2oc(-c3ccc(N)cc3)nc2c1 ?
output: 5.58

input: What value of measured pEC50 is listed for Cc1nn(-c2nc3ccccc3s2)c(N)c1-c1ccccc1 ?
output: 6.38

input: What value of measured pEC50 is listed for COc1ccc(CCNc2c(C)c(C)nc3ncnn23)cc1 ?
output: 5.51

input: What value of measured pEC50 is listed for CC1(C)CC(=O)C(=CNc2ccc3[nH]ncc3c2)C(=O)C1 [SMR000111453] ?
output: 5.29

input: What value of measured pEC50 is listed for O=S1(=O)C=C(Sc2nc3ccccc3s2)c2ccccc21 ?
output: 5.11

input: What value of measured pEC50 is listed for Cn1c(-c2c(N)n(C3CCCC3)c3nc4ccccc4nc23)nc2ccccc21 ?
output: 5.94

input: What value of measured pEC50 is listed for CCOc1ccc(-c2nc(CSCC(=O)N3CCN(c4cccc(OC)c4)CC3)c(C)o2)cc1 ?
output: 5.04

input: What value of measured pEC50 is listed for CCc1ccc2oc(-c3cc(N)cc(C)c3O)nc2c1 ?
output: 4.94

----------
// reported EC50 per item
Measured Target: Sphingosine 1-phosphate receptor 1 (Homo sapiens)
Experimental Protocol: direct activation of human S1P1 – cell-based, agonist mode, 60K MLSMR set, dose response (AID 468)
Write the answer as a number in µM, unit excluded.

// below: answered compounds
>  <Compound>
CCN(C(=O)C1CCCCC1)c1nnc(-c2cccnc2)s1

>  <EC50 [µM]>
2.13

$$$$
>  <Compound>
Cc1cc(C(=O)CSc2nnc(-c3ccco3)o2)c(C)n1-c1ccc2c(c1)OCCO2

>  <EC50 [µM]>
7.58

$$$$
>  <Compound>
Cc1ccccc1OCCCCc1c(C)n[nH]c1C

>  <EC50 [µM]>
6.74

$$$$
>  <Compound>
O=C(CSC1=NCCS1)Nc1ccnc2ccccc12

>  <EC50 [µM]>
2.44

$$$$

input: What value of measured EC50 is listed for CCCC(=O)Nc1ccc2oc(-c3ccc(OC)c(Br)c3)nc2c1 ?
output: 4.96

input: What value of measured EC50 is listed for c1ccc(C(Cc2nc(-c3cccnc3)no2)c2ccccc2)cc1 ?
output: 2.82

input: What value of measured EC50 is listed for Cn1nc(CC(=O)Nc2ccc3c(c2)OCCO3)c2ccccc2c1=O ?
output: 5.94

input: What value of measured EC50 is listed for COc1ccc(-c2noc(-c3cccc(OC)c3OC)n2)cc1OC ?
output: 1.45

input: What value of measured EC50 is listed for O=C(c1ccccc1)C(CCC(CN1CCOCC1)C(=O)c1ccccc1)CN1CCOCC1 (configuration not stated) ?
output: 4.8

input: What value of measured EC50 is listed for Cc1cc(-c2nnc(-c3ccccc3)c(-c3ccccc3)n2)c(C)o1 ?
output: 2.97

input: What value of measured EC50 is listed for Cc1cccc(-c2nc(CSCC(=O)N3CCN(Cc4ccc5c(c4)OCO5)CC3)c(C)o2)c1 ?
output: 5.16

input: What value of measured EC50 is listed for CCCC(=O)N1CCN(c2ccc(NC(=O)c3cc4ccccc4o3)cc2Cl)CC1 ?
output: 8.85

input: What value of measured EC50 is listed for Cc1nnc2ccc(Oc3ccc(-c4ccccc4)cc3)nn12 ?
output: 5.08

input: What value of measured EC50 is listed for O=C(c1ccc(F)cc1)C(CN1CCOCC1)c1ccccc1 (configuration not stated) ?
output: 17.9

input: What value of measured EC50 is listed for CCCc1ccc(OCc2nc(-c3ccc(NC(=O)c4ccco4)cc3)no2)cc1 ?
output: 4.39

input: What value of measured EC50 is listed for CCOc1ccc(-c2nc(-c3ccccc3C)no2)cc1 ?
output: 1.87

input: What value of measured EC50 is listed for O=C(CSc1nc2ccccc2o1)Nc1ccc(N2CCOCC2)c(Cl)c1 ?
output: 1.02

Measured values drawn from BindingDB's records for doi:10.7270/Q2251GJ9 for this set.
